Molecular target: STAT5b Met644Lys (Homo sapiens, UniProt P51692, M644K)
Construct: His
Sequence (P51692 whole entry M644K): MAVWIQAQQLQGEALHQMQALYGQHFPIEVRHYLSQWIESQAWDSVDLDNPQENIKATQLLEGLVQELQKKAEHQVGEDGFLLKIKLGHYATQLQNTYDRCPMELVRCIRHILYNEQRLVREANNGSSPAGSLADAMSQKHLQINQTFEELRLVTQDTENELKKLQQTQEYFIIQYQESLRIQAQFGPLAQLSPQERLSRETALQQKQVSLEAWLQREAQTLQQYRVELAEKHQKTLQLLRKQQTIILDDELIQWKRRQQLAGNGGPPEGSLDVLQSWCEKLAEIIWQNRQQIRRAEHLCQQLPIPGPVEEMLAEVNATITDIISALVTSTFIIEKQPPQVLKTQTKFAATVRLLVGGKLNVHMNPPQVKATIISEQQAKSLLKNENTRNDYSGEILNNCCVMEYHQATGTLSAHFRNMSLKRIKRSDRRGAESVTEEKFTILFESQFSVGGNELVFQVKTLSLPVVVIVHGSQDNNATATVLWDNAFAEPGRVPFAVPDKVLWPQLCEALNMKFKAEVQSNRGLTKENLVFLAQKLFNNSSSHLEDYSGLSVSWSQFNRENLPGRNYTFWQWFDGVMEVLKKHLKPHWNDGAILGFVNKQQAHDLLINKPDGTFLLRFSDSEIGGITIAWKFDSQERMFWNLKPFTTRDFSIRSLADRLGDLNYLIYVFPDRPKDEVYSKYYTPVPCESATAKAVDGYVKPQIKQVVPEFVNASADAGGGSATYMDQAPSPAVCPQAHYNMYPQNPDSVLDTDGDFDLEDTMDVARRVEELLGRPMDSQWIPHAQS
Experiment: FP-based competitive binding assay, STAT5b Met644Lys
Details: STAT5b Met644Lys
Protocol: Fluorescence polarization assays The ability of test compounds to displace 5-carboxyfluorescein-GY(PO3H2)LVLDKW (final concentration: 10 nM) from the SH2 domain of STAT5a/b proteins was analyzed. Proteins […] and 0.146 – 600 µM (STAT5b Arg566Glu), respectively. […] Samples were transferred to 384-well microtiter plates and fluorescence polarization was read after a further 1 h incubation time. […] Percent binding was calculated based on a logarithmic curve fit using OriginPro 8G software. […]
reported.endpoint: IC50 (µM)

>>> endpoint_value("O=C(O)c1ccccc1OP(=O)(O)O")
36.6

====

target: STAT5b-6M (Gln636Pro/Met639Asn/Phe640Leu/Met644Lys/Asn664Ser/Tyr679Phe) (Homo sapiens, UniProt P51692, F640L/M639N/M644K/N664S/Q636P/Y679F); construct: His; assay: FP-based competitive binding assay, STAT5b-6M; settings: STAT5b-6M; Ki calculated from IC50
Sequence (P51692 whole entry Q636P/M639N/F640L/M644K/N664S/Y679F): as the sequence (P51692 whole entry M644K) above, with Q636P, M639N, F640L, N664S, Y679F counted along it
reported.endpoint: Ki (µM)

>>> endpoint_value("O=C(O)c1ccccc1OP(=O)(O)O")
10.7

Entry source: paper PMC7496286
